Target: hTau protein (Homo sapiens, UniProt P10636)
Sequence (P10636 with tags, fused parts or gaps): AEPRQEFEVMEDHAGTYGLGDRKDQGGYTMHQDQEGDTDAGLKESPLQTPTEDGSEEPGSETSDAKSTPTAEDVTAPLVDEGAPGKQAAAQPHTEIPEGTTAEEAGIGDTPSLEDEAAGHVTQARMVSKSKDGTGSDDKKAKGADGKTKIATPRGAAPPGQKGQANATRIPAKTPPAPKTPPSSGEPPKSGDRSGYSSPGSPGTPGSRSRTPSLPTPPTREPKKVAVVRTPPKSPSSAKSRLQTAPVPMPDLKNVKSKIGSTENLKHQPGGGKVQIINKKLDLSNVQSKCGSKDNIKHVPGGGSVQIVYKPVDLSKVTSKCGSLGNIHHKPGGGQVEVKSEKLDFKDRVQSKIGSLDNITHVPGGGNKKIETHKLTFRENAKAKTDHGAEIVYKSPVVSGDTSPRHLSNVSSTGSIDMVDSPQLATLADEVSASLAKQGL
pKi: −log10 of the molar value.
Field: pKi. Provide a value for each of the molecules that follow.

Provide the documented pKi with hTau protein (Homo sapiens, UniProt P10636) as the system for Cc1ccc2nc(-c3ccc(N)cc3)ccc2c1 [THQ 55, 2-(4-aminophenyl), 6-(methyl)quinoline]
< 5.00

Provide the documented pKi with hTau protein (Homo sapiens, UniProt P10636) as the system for Cc1ccc(-c2ccc3cc(C)ccc3n2)cc1 [THQ 4S, 2-(4methylphenyl), 6-(methyl)quinoline]
< 5.00
